assay: small-molecule microarray binders of probe aXIP, primary screen, biochemical, NeuroSMM set, 635/667 nm fluorescence (AID 1119); details: higher = more signal, called active from +8 up or from −8 down;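 note: probe is the protein aXip251-270 applied at 1 µg/mL to compound-printed slides; binding of probe to printed compounds measured as 667 nm fluorescence plus signal to noise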
Parameter: composite Z-score. Scope: all listed entries.
measureName: composite Z-score

>>> endpointvalue("O=c1cccc(C=Cc2ccccc2)o1")
0.0786
>>> endpointvalue("COc1ccc([Si](C)(C)[C@H]2[C@H](CCn3cc(CCO)nn3)O[C@@]3(C(=O)N(Cc4ccc(N5CCOC5=O)cc4)c4ccccc43)[C@@H]2C)cc1")
0.533
>>> endpointvalue("O=C1C[C@]2(c3ccc([N+](=O)[O-])cc3)C(=O)N(CC(F)(F)F)c3cc(CO)ccc3[C@H]2N1CC12CC3CC(CC(C3)C1)C2")
-0.171
>>> endpointvalue("Cc1ccccc1C(O)C1C=CC2C(=O)N(C)C(=O)C2N1Nc1ccccc1 (centres undefined)")
0.0032

###

target: E3 ubiquitin-protein ligase XIAP (Homo sapiens); test: XIAP binders, primary screen, biophysical, small-molecule microarray, fluorescence 635 nm (AID 1181); conditions: small-molecule microarray binding, higher = more signal;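 note: score merges 667 nm emission and signal to noise over triplicate slides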
Parameter: composite z-score. Scope: all listed entries.
measureName: composite z-score

>>> endpointvalue("C=CC[C@@]1(C(=O)NCC(O)CO)N=C(c2ccc(OCCCO)cc2)O[C@@H]1c1ccccc1N=[N+]=[N-] (some centres undefined)")
0.0049
>>> endpointvalue("CC(C)N1CC=CC23O[C@@H]4C=CCOC(=O)[C@@H]4[C@H]2C(=O)N(CCO)[C@@H]3C1=O (some centres undefined)")
0.0368
>>> endpointvalue("COc1ccc(CCNC(=O)[C@@]2(Sc3ccc(C)cc3)CC(=O)N(Cc3ccccc3Cl)[C@@H]2c2ccc(CO)cc2I)cc1")
0.0512
>>> endpointvalue("CC(C)N1C(=O)c2ccccc2[C@@H](C(=O)NCCCN(C)C)[C@@H]1c1ccc(CO)cc1")
0.013

###

assay: fission yeast growth modulation, primary screen, strain 972, OD600, 24 h, no modulator (AID 1090);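 note: basal condition with compound alone and no growth modifier present; test concentration not given here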; details: S. pombe 972 growth, called active from +8 up or from −8 down
Activity calls are given as the source filed them.
Labels: label 1 = active, label 0 = inactive

>>> qualitativelabel("COC(=O)c1ccc(C23CC2(C(NP(=O)(c2ccccc2)c2ccccc2)c2ccccc2)C3)cc1 (stereo not drawn)")
"label 0"
>>> qualitativelabel("O=C(O)[C@@]1(Cc2ccccc2)N=C(c2ccc(OCCCO)cc2)O[C@H]1c1ccccc1")
"label 0"
>>> qualitativelabel("[N-]=[N+]=NCc1ccccc1[C@H]1OC(c2ccc(OCCCO)cc2)=N[C@@]1(CCS(=O)(=O)c1ccccc1)C(=O)N1CCOCC1")
"label 0"
>>> qualitativelabel("CCCNC(=O)[C@@H]1c2ccccc2C(=O)N(Cc2ccccc2)[C@H]1c1ccc(CO)cc1")
"label 0"
>>> qualitativelabel("O=C1C[C@]2(c3ccc([N+](=O)[O-])cc3)C(=O)N(CC(F)(F)F)c3cc(CO)ccc3[C@H]2N1CC12CC3CC(CC(C3)C1)C2")
"label 0"
>>> qualitativelabel("COC(=O)c1ccc(C(O)C2C=CC3C(=O)N(C)C(=O)C3N2NC(=O)OC(C)(C)C)o1 (stereo not drawn)")
"label 0"
>>> qualitativelabel("C=C[C@H](C)[C@@H](O)c1ccc(O)c2ccccc12")
"label 1"
>>> qualitativelabel("CC(C)(C)N1CC=CC23O[C@@H]4/C=C\\CCCOC(=O)C4[C@H]2C(=O)N(CCO)[C@@H]3C1=O (stereo partly drawn)")
"label 0"
>>> qualitativelabel("Cc1cc(C)c(C(O)C2C=CC3C(=O)N(c4ccccc4)C(=O)C3N2Nc2ccc(C#N)cc2)c(C)c1 (stereo not drawn)")
"label 0"
>>> qualitativelabel("COc1ccc(C#Cc2ccc3c(c2)[C@]2(C(=O)N3)[C@H](c3ccc(O)cc3)N3[C@H](c4ccccc4)[C@H](c4ccccc4)OC(=O)[C@H]3[C@@H]2C(=O)NC[C@H](O)c2ccccc2)cc1")
"label 0"
>>> qualitativelabel("O=C1OCCC=C[C@H]2OC34C=CCN(c5ccc6ccccc6c5)C(=O)[C@H]3N(CCCCCO)C(=O)[C@@H]4C12 (stereo partly drawn)")
"label 0"
>>> qualitativelabel("CCOC(=O)C[C@H]1[C@H](OC(=O)c2ccc(-c3ccccc3)cc2)[C@@H](NC(=O)c2ccc(-c3ccccc3)cc2)c2cc(OCCCO)ccc2N1C(=O)Cc1ccc(OC)cc1")
"label 0"
>>> qualitativelabel("COc1cc2c(cc1OC)CN(C(=O)[C@@H]1[C@H]3C(=O)O[C@H](c4ccccc4)[C@H](c4ccccc4)N3[C@H](c3ccccc3OCCO)[C@@]13C(=O)Nc1ccc(C#CCNC(N)=O)cc13)CC2")
"label 0"
